Entry source: patent US8455528B2

- measured-target: Human FAAH (Homo sapiens)
- Construct: The full length FAAH was subcloned into the mammalian expression vector, pcDEF.neo; expressed in transfected cells
- protocol-text: Human FAAH lysate assay (CHO cell lysate, AAMCA fluorescent substrate)
- Assay type: biochemical
- run-conditions: human FAAH lysate; read-out: hFAAH lysate IC50
metric-name: IC50 (nM)

- compound: "Cn1c(-c2ccccn2)nc(-c2ccc(C(C)(C)O)nc2)c1Sc1ccc(F)c(F)c1 [Example 107]"
  measured-target: "Human FAAH (Homo sapiens)"
  metric-name: "IC50"
  reported-result: 60.2
- compound: "Cn1c(-c2ccc(F)cc2)nc(-c2ccc(C(C)(C)O)nc2)c1Sc1ccc(Cl)cc1F [Example 113]"
  measured-target: "Human FAAH (Homo sapiens)"
  metric-name: "IC50"
  reported-result: 67.9
- compound: "Cn1c(-c2ncco2)nc(-c2ccc(S(C)(=O)=O)cc2)c1Sc1ccc(Cl)cc1 [Example 139]"
  measured-target: "Human FAAH (Homo sapiens)"
  metric-name: "IC50"
  reported-result: 21.2
- compound: "Cn1c(-c2ccccn2)nc(-c2ccc(-c3ncco3)cc2)c1Sc1ccc(Cl)cn1 [Example 120]"
  measured-target: "Human FAAH (Homo sapiens)"
  metric-name: "IC50"
  reported-result: 26.4

###

- measured-target: Human FAAH (Homo sapiens, UniProt O00519)
- Construct: The full length FAAH was subcloned into the mammalian expression vector, pcDEF.neo; expressed in transfected cells
- Sequence (O00519 1-579): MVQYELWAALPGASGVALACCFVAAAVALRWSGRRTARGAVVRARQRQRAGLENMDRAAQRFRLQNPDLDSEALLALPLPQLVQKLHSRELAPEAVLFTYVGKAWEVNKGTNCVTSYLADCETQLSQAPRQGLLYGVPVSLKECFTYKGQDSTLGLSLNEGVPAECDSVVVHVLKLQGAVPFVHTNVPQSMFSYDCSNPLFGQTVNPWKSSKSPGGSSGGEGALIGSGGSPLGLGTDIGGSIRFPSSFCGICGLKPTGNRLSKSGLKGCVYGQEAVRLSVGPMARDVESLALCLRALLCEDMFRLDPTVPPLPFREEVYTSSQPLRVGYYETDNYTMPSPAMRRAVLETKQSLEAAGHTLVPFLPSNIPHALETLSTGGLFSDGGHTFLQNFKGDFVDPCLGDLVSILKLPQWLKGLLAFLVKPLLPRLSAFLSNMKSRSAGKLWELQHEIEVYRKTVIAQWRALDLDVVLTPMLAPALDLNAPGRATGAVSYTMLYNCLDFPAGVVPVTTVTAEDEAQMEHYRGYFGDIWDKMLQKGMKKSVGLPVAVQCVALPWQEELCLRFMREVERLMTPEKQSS
- protocol-text: Human FAAH lysate assay (CHO cell lysate, AAMCA fluorescent substrate)
- Format: biochemical
- run-conditions: human FAAH lysate; read-out: hFAAH lysate IC50
pIC50: −log10 of the molar value.
Property: pIC50; scope: individual compounds
metric-name: pIC50

- smiles-text: "Cn1c(-c2ccccn2)nc(-c2ccc(S(C)(=O)=O)nc2)c1Sc1ccc(F)c(F)c1"
  reported-result: 7.42
- smiles-text: "COc1ccc(-c2nc(-c3ccc(S(C)(=O)=O)cc3)c(Sc3ccc(Cl)cc3)n2C)cn1"
  reported-result: 6.91
- smiles-text: "COC(=O)c1ccc(-c2nc3c4ncccc4ccn3c2Sc2ccc(Cl)cc2)cc1"
  reported-result: 7.92
- smiles-text: "Cn1c(-c2ccc(F)c(F)c2)nc(-c2ccc(C(C)(C)O)nc2)c1Sc1ccc(Cl)cc1F"
  reported-result: 6.94

###

Each entry below lists one item and its recorded pIC50 value.
- measured-target: Human FAAH (Homo sapiens, UniProt O00519)
- Construct: The full length FAAH was subcloned into the mammalian expression vector, pcDEF.neo; expressed in transfected cells
- protocol-text: Human FAAH lysate assay (CHO cell lysate, AAMCA fluorescent substrate)
- Format: biochemical
- run-conditions: FAAH inhibition, CHO cell lysate expressing human FAAH; read-out: Human Lysate
pIC50: −log10 of the molar value.

- compound: "CS(=O)(=O)c1ccc(-c2nc(C3CCC3)[nH]c2Sc2ccc(Cl)cc2)cc1"
  pIC50: 6.02
- compound: "Cn1c(-c2ccccn2)nc(-c2ccc(-c3nnco3)cc2)c1Sc1ccc(Cl)cn1"
  pIC50: 7.57
- compound: "Cn1c(-c2ccccn2)nc(-c2ccc(-n3ccnn3)cc2)c1Sc1ccc(Cl)cc1"
  pIC50: 7.78
- compound: "Cn1c(-c2ccccc2)nc(Sc2ccc(Cl)cc2)c1-c1ccc(C#N)cc1"
  pIC50: 6.43
- compound: "CC(C)c1nc(-c2ccc(S(C)(=O)=O)cc2)c(Sc2ccc(Cl)cc2)n1C"
  pIC50: 7.13
- compound: "Cn1cnc(-c2ccc(C#N)cc2)c1Sc1ccc(Cl)cc1"
  pIC50: 6.44
- compound: "Cn1c(-c2ccccn2)nc(-c2ccc(C(O)C(F)F)cc2)c1Sc1ccc(Cl)cc1 (stereo not shown)"
  pIC50: 7.67
- compound: "Cn1c(C2CCC2)nc(-c2ccc(S(C)(=O)=O)cc2)c1Sc1ccc(Cl)cc1"
  pIC50: 7.58
- compound: "Cn1c(-c2ccccc2)nc(-c2ccc(C#N)cc2)c1Sc1ccc(Cl)cc1"
  pIC50: 7.67
- compound: "Cn1c(-c2ccccn2)nc(-c2ccc(N)cc2)c1Sc1ccc(Cl)cc1"
  pIC50: 7.47

###

- measured-target: Human FAAH (Homo sapiens)
- Construct: The full length FAAH was subcloned into the mammalian expression vector, pcDEF.neo; expressed in transfected cells
- protocol-text: Human FAAH lysate assay (CHO cell lysate, AAMCA fluorescent substrate)
- Format: biochemical
- run-conditions: human FAAH lysate; read-out: hFAAH lysate IC50
Measured IC50 by item
metric-name: IC50 (µM)

- smiles-text: "Cn1c(-c2ccccn2)nc(-c2ccc(C(C)(C)O)nc2)c1Sc1ccc(F)cc1F"
  measured-target: "Human FAAH (Homo sapiens)"
  unit-label: "µM"
  reported-result: 0.0332
- smiles-text: "Cn1c(-c2ccccn2)nc(-c2ccc(-c3ccnnc3)cc2)c1Sc1ccc(Cl)cn1"
  measured-target: "Human FAAH (Homo sapiens)"
  unit-label: "µM"
  reported-result: 0.0157
- smiles-text: "Cn1c(-c2ccccn2)nc(-c2ccc(S(C)(=O)=O)nc2)c1Sc1ccc(Cl)cc1"
  measured-target: "Human FAAH (Homo sapiens)"
  unit-label: "µM"
  reported-result: 0.0063
- smiles-text: "Cn1c(-c2ccccn2)nc(-c2ccc(-c3ccsc3)cc2)c1Sc1ccc(Cl)cc1"
  measured-target: "Human FAAH (Homo sapiens)"
  unit-label: "µM"
  reported-result: 0.0087

###

- measured-target: Rat FAAH (Rattus norvegicus, UniProt P97612)
- Sequence (P97612 whole entry): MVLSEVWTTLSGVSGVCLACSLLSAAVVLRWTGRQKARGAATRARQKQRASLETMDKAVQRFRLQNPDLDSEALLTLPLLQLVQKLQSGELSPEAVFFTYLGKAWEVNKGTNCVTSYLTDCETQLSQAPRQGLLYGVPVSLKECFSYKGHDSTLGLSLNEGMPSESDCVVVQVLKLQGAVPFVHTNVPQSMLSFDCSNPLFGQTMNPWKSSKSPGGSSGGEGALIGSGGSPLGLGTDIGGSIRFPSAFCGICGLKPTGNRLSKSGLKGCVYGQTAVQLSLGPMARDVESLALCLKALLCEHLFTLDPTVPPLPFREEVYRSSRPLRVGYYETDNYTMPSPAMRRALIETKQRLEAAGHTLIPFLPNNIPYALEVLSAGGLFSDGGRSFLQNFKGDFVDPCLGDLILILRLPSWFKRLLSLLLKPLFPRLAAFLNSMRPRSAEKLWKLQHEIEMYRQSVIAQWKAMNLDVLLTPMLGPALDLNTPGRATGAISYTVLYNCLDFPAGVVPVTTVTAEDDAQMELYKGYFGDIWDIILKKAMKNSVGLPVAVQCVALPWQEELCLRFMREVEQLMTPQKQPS
- protocol-text: Rat FAAH whole cell assay (FAAH_CHO cells)
- run-conditions: FAAH inhibition, whole CHO cells expressing rat FAAH
// boundary case: IC50 equal to 0.06 µM maps to 0; strictly smaller maps to 1

- smiles-text: "Cn1c(-c2ccccn2)nc(-c2ccc(N)cc2)c1Sc1ccc(Cl)cc1"
  discrete-label: 0
- smiles-text: "Cn1c(-c2ccccc2)nc(-c2ccc(C#N)cc2)c1Sc1ccc(Cl)cc1"
  discrete-label: 1
- smiles-text: "Cn1cnc(-c2ccc(C#N)cc2)c1Sc1ccc(Cl)cc1"
  discrete-label: 0
- smiles-text: "Cn1c(-c2ccccn2)nc(-c2ccc(-c3nnco3)cc2)c1Sc1ccc(Cl)cn1"
  discrete-label: 0
- smiles-text: "CS(=O)(=O)c1ccc(-c2nc(C3CCC3)[nH]c2Sc2ccc(Cl)cc2)cc1"
  discrete-label: 0
- smiles-text: "CC(C)c1nc(-c2ccc(S(C)(=O)=O)cc2)c(Sc2ccc(Cl)cc2)n1C"
  discrete-label: 0
- smiles-text: "Cn1c(-c2ccccn2)nc(-c2ccc(-n3ccnn3)cc2)c1Sc1ccc(Cl)cc1"
  discrete-label: 1
- smiles-text: "Cn1c(C2CCC2)nc(-c2ccc(S(C)(=O)=O)cc2)c1Sc1ccc(Cl)cc1"
  discrete-label: 0

###

As shown below, each of these compounds has a reported IC50 value.
- measured-target: Human FAAH (Homo sapiens, UniProt O00519)
- Construct: The full length FAAH was subcloned into the mammalian expression vector, pcDEF.neo; expressed in transfected cells
- protocol-text: Human FAAH lysate assay (CHO cell lysate, AAMCA fluorescent substrate)
- Assay type: biochemical
- run-conditions: human FAAH lysate; read-out: Human FAAH lysate assay: IC50
Counter-ions that a name gives are not always drawn.

- compound: "Cn1c(C(C)(C)O)nc(-c2ccc(-c3ncon3)cc2)c1Sc1ccc(Cl)cc1"
  measured-target: "Human FAAH (Homo sapiens, UniProt O00519)"
  IC50 [µM]: 0.208
- compound: "CC(C)n1ccc(-c2nc(-c3ccc(-c4ncon4)cc3)c(Sc3ccc(Cl)cc3)n2C)n1"
  measured-target: "Human FAAH (Homo sapiens, UniProt O00519)"
  IC50 [µM]: 0.0156
- compound: "Cn1cnc(-c2ccc(OC(C)(C)C(O)C(F)(F)F)cc2)c1Sc1ccc(Cl)cn1 (centres unmarked)"
  measured-target: "Human FAAH (Homo sapiens, UniProt O00519)"
  IC50 [µM]: 0.186
- compound: "CS(=O)(=O)c1ccc(-c2nc3n(c2Sc2ccc(Cl)cc2)CCC2CCCNC32)cc1 (centres unmarked)"
  measured-target: "Human FAAH (Homo sapiens, UniProt O00519)"
  IC50 [µM]: 0.098
- compound: "Cn1cnc(-c2ccc(OC(C)(C)CO)cc2)c1Sc1ccc(Cl)cn1 [Example 125, trifluoroacetate]"
  measured-target: "Human FAAH (Homo sapiens, UniProt O00519)"
  IC50 [µM]: 0.198
- compound: "Cn1c(-c2ccccn2)nc(-c2ccc(-c3ccco3)cc2)c1Sc1ccc(Cl)cc1 [Example 116, trifluoroacetate]"
  measured-target: "Human FAAH (Homo sapiens, UniProt O00519)"
  IC50 [µM]: 0.0175
- compound: "Cn1c(-c2ccccn2)nc(-c2ccc(C(C)(C)O)nc2)c1Sc1ccc(Cl)cc1"
  measured-target: "Human FAAH (Homo sapiens, UniProt O00519)"
  IC50 [µM]: 0.0378
- compound: "CC(CO)NC(=O)c1ccc(-c2nc(-c3ccccn3)n(C)c2Sc2ccc(Cl)cc2)cc1 (centres unmarked)"
  measured-target: "Human FAAH (Homo sapiens, UniProt O00519)"
  IC50 [µM]: 0.0779
- compound: "Cn1c(-c2ccccn2)nc(-c2ccc(S(C)(=O)=O)nc2)c1Sc1ccc(Cl)cn1"
  measured-target: "Human FAAH (Homo sapiens, UniProt O00519)"
  IC50 [µM]: 0.048
- compound: "Cn1c(-c2cccs2)nc(-c2ccc(S(C)(=O)=O)cc2)c1Sc1ccc(Cl)cc1"
  measured-target: "Human FAAH (Homo sapiens, UniProt O00519)"
  IC50 [µM]: 0.0165
- compound: "Cn1c(-c2cc(C3CC3)on2)nc(-c2ccc(C(C)(C)O)nc2)c1Sc1ccc(Cl)cn1"
  measured-target: "Human FAAH (Homo sapiens, UniProt O00519)"
  IC50 [µM]: 0.091
- compound: "Cn1c(C2CC2)nc(-c2ccc3nc(C(F)F)ccc3c2)c1Sc1ccc(Cl)cn1"
  measured-target: "Human FAAH (Homo sapiens, UniProt O00519)"
  IC50 [µM]: 0.0179
- compound: "Cn1cnc(-c2ccc(OC(C)(C)C(N)=O)cc2)c1Sc1ccc(Cl)cn1"
  measured-target: "Human FAAH (Homo sapiens, UniProt O00519)"
  IC50 [µM]: 0.036
- compound: "CCn1ccc(-c2nc(-c3ccc(-c4ncon4)cc3)c(Sc3ccc(Cl)cc3)n2C)n1"
  measured-target: "Human FAAH (Homo sapiens, UniProt O00519)"
  IC50 [µM]: 0.0287
- compound: "CC(C)(O)c1ccc(-c2nc3c4ncccc4ccn3c2Sc2ccc(Cl)cc2)cc1"
  measured-target: "Human FAAH (Homo sapiens, UniProt O00519)"
  IC50 [µM]: 0.0471
- compound: "Cn1c(-c2ccn(CC(C)(C)O)n2)nc(-c2ccc(C#N)cc2)c1Sc1ccc(Cl)cc1"
  measured-target: "Human FAAH (Homo sapiens, UniProt O00519)"
  IC50 [µM]: 0.0231
- compound: "Cn1ccc(-c2nc(-c3ccc(-c4ncon4)cc3)c(Sc3ccc(Cl)cc3)n2C)n1"
  measured-target: "Human FAAH (Homo sapiens, UniProt O00519)"
  IC50 [µM]: 0.0117
- compound: "Cn1c(I)nc(-c2ccc(S(C)(=O)=O)cc2)c1Sc1ccc(Cl)cc1"
  measured-target: "Human FAAH (Homo sapiens, UniProt O00519)"
  IC50 [µM]: 0.0156
- compound: "Cn1c(-c2ccn(C3CC3)n2)nc(-c2ccc(-c3ncon3)cc2)c1Sc1ccc(Cl)cc1"
  measured-target: "Human FAAH (Homo sapiens, UniProt O00519)"
  IC50 [µM]: 0.0074
- compound: "Cn1c(-c2ccccn2)nc(-c2ccc(-c3nccs3)cc2)c1Sc1ccc(Cl)cc1"
  measured-target: "Human FAAH (Homo sapiens, UniProt O00519)"
  IC50 [µM]: 0.0143
- compound: "Cn1cc(-c2nc(-c3ccc(S(C)(=O)=O)cc3)c(Sc3ccc(Cl)cc3)n2C)cn1"
  measured-target: "Human FAAH (Homo sapiens, UniProt O00519)"
  IC50 [µM]: 0.0139
- compound: "CCn1nccc1-c1nc(-c2ccc(-c3ncon3)cc2)c(Sc2ccc(Cl)cc2)n1C"
  measured-target: "Human FAAH (Homo sapiens, UniProt O00519)"
  IC50 [µM]: 0.0679
- compound: "CCOC(C)(C)c1nc(-c2ccc(-c3ncon3)cc2)c(Sc2ccc(Cl)cc2)n1C"
  measured-target: "Human FAAH (Homo sapiens, UniProt O00519)"
  IC50 [µM]: 0.0244
